Study target: FKBP12 (Homo sapiens, UniProt P62942)
Sequence (P62942 whole entry): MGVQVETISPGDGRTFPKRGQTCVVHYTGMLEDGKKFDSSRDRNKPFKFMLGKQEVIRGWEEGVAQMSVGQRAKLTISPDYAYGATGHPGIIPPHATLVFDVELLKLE
Assay info: NanoBRET FKBP12 in intact HEK293 cells
Measure name: log10(IC50) (log10 of the value in nM)
Answers are given as log10 of IC50 in nM.

Lab entry: FKBP12 (Homo sapiens, UniProt P62942) assay, compound C=CC1CN(Cc2ccccn2)C(=O)C2CCCC1N2S(=O)(=O)c1cc(Cl)cc(-c2cn(CCOCCNC(=O)CC3N=C(c4ccc(Cl)cc4)c4c(sc(C)c4C)-n4c(C)nnc43)nn2)c1 (centres unmarked) , log10(IC50) = 2.36

Lab entry: FKBP12 (Homo sapiens, UniProt P62942) assay, compound Cc1sc2c(c1C)C(c1ccc(Cl)cc1)=NC(CC(=O)N1CCC(N3CCC(n4cc(C5CN(Cc6ccccn6)C(=O)C6CCCC5N6S(=O)(=O)c5cc(Cl)cc(Cl)c5)nn4)CC3)CC1)c1nnc(C)n1-2 (centres unmarked) , log10(IC50) = 2.03

Lab entry: FKBP12 (Homo sapiens, UniProt P62942) assay, compound Cc1sc2c(c1C)C(c1ccc(Cl)cc1)=NC(CC(=O)NCCOCCn1cc(COC(C)C3CN(Cc4ccccn4)C(=O)C4CCCC3N4S(=O)(=O)c3cc(Cl)cc(Cl)c3)nn1)c1nnc(C)n1-2 (centres unmarked) [a1e] , log10(IC50) = 2.01

Lab entry: FKBP12 (Homo sapiens, UniProt P62942) assay, compound Cc1sc2c(c1C)C(c1ccc(Cl)cc1)=NC(CC(=O)NCCOCCOCCn1cc(C3CN(Cc4ccccn4)C(=O)C4CCCC3N4S(=O)(=O)c3cc(Cl)cc(Cl)c3)nn1)c1nnc(C)n1-2 (centres unmarked) , log10(IC50) = 1.23

Lab entry: FKBP12 (Homo sapiens, UniProt P62942) assay, compound Cc1sc2c(c1C)C(c1ccc(Cl)cc1)=NC(CC(=O)N1CCC3(CC1)CC(n1cc(C4CN(Cc5ccccn5)C(=O)C5CCCC4N5S(=O)(=O)c4cc(Cl)cc(Cl)c4)nn1)C3)c1nnc(C)n1-2 (centres unmarked) [a13c] , log10(IC50) = 1.88
